Sourced from patent US12419874B2

Test: In vivo pharmacokinetics in rats, oral
Parameters: species or system SD rats
Conditions: rat, plasma; SD rats, PO, 5 mg/kg
Observed property: AUC(0-t) (ng·h/mL)
The figure you give is taken to be in ng·h/mL; do not add the unit.

Which value of AUC(0-t) has been reported for Cc1cc(-n2nc3c(c2-n2ccn(-c4ccc5c(cnn5C)c4F)c2=O)[C@H](C)N(C(=O)c2cc4cc([C@H]5CCOC(C)(C)C5)ccc4n2[C@@]2(c4noc(=O)[nH]4)C[C@@H]2C)CC32CC2)cc(C)c1F in the records?
11800

###

Assay: In vivo pharmacokinetics in rats, oral
Set-up: species or system SD rats
Conditions: rat, plasma; SD rats, PO, 1 mg/kg
Protocol: The compounds of the present disclosure were formulated with […]+90% 100 mM glycine-64 mM NaOH, and orally administered to fasted SD rats at a dose of 1 mg/kg or 5 mg/kg, respectively. […] The plasma concentrations of the compounds were determined by LC-MS/MS. […]
Rule: half-life of 10 h or more gives met; anything lower gives not met.

Entry Cc1cc(-n2nc3c(c2-n2ccn(-c4ccc5c(cnn5C)c4F)c2=O)[C@H](C)N(C(=O)c2cc4cc([C@H]5CCOC(C)(C)C5)ccc4n2[C@@]2(c4noc(=O)[nH]4)C[C@@H]2C)CC32CC(F)(F)C2)cc(C)c1F : is its half-life no less than 10 h?
not met

Entry Cc1cc(-n2nc3c(c2-n2ccn(-c4ccc5c(cnn5C)c4F)c2=O)[C@H](C)N(C(=O)c2cc4cc([C@H]5CCOC(C)(C)C5)ccc4n2[C@@]2(c4noc(=O)[nH]4)C[C@@H]2C)CC32CC2F)cc(C)c1F (some centres unmarked) : is its half-life no less than 10 h?
met

Entry C=C1CC2(C1)CN(C(=O)c1cc3cc([C@H]4CCOC(C)(C)C4)ccc3n1[C@@]1(c3noc(=O)[nH]3)C[C@@H]1C)[C@@H](C)c1c2nn(-c2cc(C)c(F)c(C)c2)c1-n1ccn(-c2ccc3c(cnn3C)c2F)c1=O : is its half-life no less than 10 h?
met

Entry Cc1cc(-n2nc3c(c2-n2ccn(-c4ccc5c(cnn5C)c4F)c2=O)[C@H](C)N(C(=O)c2cc4cc([C@H]5CCOC(C)(C)C5)ccc4n2[C@@]2(c4noc(=O)[nH]4)C[C@@H]2C)CC32C[C@H]2C)cc(C)c1F (some centres unmarked) : is its half-life no less than 10 h?
not met
